Experiment: Lung homogenate stability in vitro (human)
Type: in vitro ADME
Settings: 8 h, 37° C.
Reported Residual rate after incubation of human lung homogenate (%) is given for each of the following compounds.
QUANTITY_KIND: Residual rate after incubation of human lung homogenate (%)

# COMPOUND, EXPERIMENTAL_RESULT
records = [
    ("O=c1ccc2c([C@@H](O)CNCCCOc3ccc(OCCC[N+]45CCC(CC4)[C@@H](OC[C@@](O)(c4ccccc4)C4CCCC4)C5)cc3)ccc(O)c2[nH]1.[Br-]", 90),
    ("OCc1cc([C@@H](O)CNCCCCCCCCC[N+]23CCC(CC2)[C@@H](OC[C@@](O)(c2ccccc2)C2CCCC2)C3)ccc1O.[Br-]", 93),
    ("O=CNc1cc([C@@H](O)CNCCCOc2ccc(OCCC[N+]34CCC(CC3)[C@@H](OC[C@@](O)(c3ccccc3)C3CCCC3)C4)cc2)ccc1O", 93),
    ("CC(Cc1ccc(OCCC[N+]23CCC(CC2)[C@@H](OC[C@@](O)(c2ccccc2)C2CCCC2)C3)cc1)NC[C@H](O)c1ccc(O)c2[nH]c(=O)ccc12.[Br-] (stereo partly drawn)", 92),
    ("OCc1cc([C@@H](O)CNCCCOc2ccc(OCCC[N+]34CCC(CC3)[C@@H](OC[C@@](O)(c3ccccc3)C3CCCC3)C4)cc2)ccc1O.[Br-]", 95),
    ("O=c1ccc2c([C@@H](O)CNCCCCCCCCC[N+]34CCC(CC3)[C@@H](OC[C@@](O)(c3ccccc3)C3CCCC3)C4)ccc(O)c2[nH]1.[Br-]", 98),
    ("CC(NC[C@H](O)c1ccc(O)c(CO)c1)c1ccc(OCCC[N+]23CCC(CC2)[C@@H](OC[C@@](O)(c2ccccc2)C2CCCC2)C3)cc1 (stereo partly drawn)", 94),
    ("CC(Cc1ccc(OCC[N+]23CCC(CC2)[C@@H](OC[C@@](O)(c2ccccc2)C2CCCC2)C3)cc1)NC[C@H](O)c1ccc(O)c(NC=O)c1 (stereo partly drawn)", 92),
    ("CC(NC[C@H](O)c1ccc(O)c(NC=O)c1)c1ccc(OCCC[N+]23CCC(CC2)[C@@H](OC[C@@](O)(c2ccccc2)C2CCCC2)C3)cc1.[Br-] (stereo partly drawn)", 91),
]

====

Assay: Liver microsome metabolic stability in vitro (human)
Settings: Human liver microsomes

# MOLECULE, liver extraction rate (ERh)
data = [
    ("O=c1ccc2c([C@@H](O)CNCCCCCCCCC[N+]34CCC(CC3)[C@@H](OC[C@@](O)(c3ccccc3)C3CCCC3)C4)ccc(O)c2[nH]1.[Br-]", 0.96),
    ("O=CNc1cc([C@@H](O)CNCCCOc2ccc(OCCC[N+]34CCC(CC3)[C@@H](OC[C@@](O)(c3ccccc3)C3CCCC3)C4)cc2)ccc1O", 0.97),
    ("CC(NC[C@H](O)c1ccc(O)c(CO)c1)c1ccc(OCCC[N+]23CCC(CC2)[C@@H](OC[C@@](O)(c2ccccc2)C2CCCC2)C3)cc1 (some centres unmarked)", 0.95),
    ("CC(Cc1ccc(OCC[N+]23CCC(CC2)[C@@H](OC[C@@](O)(c2ccccc2)C2CCCC2)C3)cc1)NC[C@H](O)c1ccc(O)c(NC=O)c1 (some centres unmarked)", 0.98),
    ("C[N+]1(C)CCC(OC(=O)Nc2cc(CCC(=O)Nc3ccc(CNC[C@H](O)c4ccc(O)c5[nH]c(=O)ccc45)cc3)ccc2-c2ccccc2)CC1.O=C([O-])C(F)(F)F [reference compound]", 0.36),
    ("CC(NC[C@H](O)c1ccc(O)c(NC=O)c1)c1ccc(OCCC[N+]23CCC(CC2)[C@@H](OC[C@@](O)(c2ccccc2)C2CCCC2)C3)cc1.[Br-] (some centres unmarked)", 0.93),
    ("OCc1cc([C@@H](O)CNCCCCCCCCC[N+]23CCC(CC2)[C@@H](OC[C@@](O)(c2ccccc2)C2CCCC2)C3)ccc1O.[Br-]", 0.94),
    ("CC(Cc1ccc(OCCC[N+]23CCC(CC2)[C@@H](OC[C@@](O)(c2ccccc2)C2CCCC2)C3)cc1)NC[C@H](O)c1ccc(O)c2[nH]c(=O)ccc12.[Br-] (some centres unmarked)", 0.92),
    ("O=c1ccc2c([C@@H](O)CNCCCOc3ccc(OCCC[N+]45CCC(CC4)[C@@H](OC[C@@](O)(c4ccccc4)C4CCCC4)C5)cc3)ccc(O)c2[nH]1.[Br-]", 0.99),
    ("OCc1cc([C@@H](O)CNCCCOc2ccc(OCCC[N+]34CCC(CC3)[C@@H](OC[C@@](O)(c3ccccc3)C3CCCC3)C4)cc2)ccc1O.[Br-]", 0.93),
    ("O=c1ccc2c([C@@H](O)CNCCCCCCCCCN3CCC(Cn4cnc([C@](O)(c5ccccc5)C5CCCCC5)n4)CC3)ccc(O)c2[nH]1 [reference compound]", 0.62),
]
